Attribution: the supplement of paper PMC12645437

Molecular target: T1, CRBN, Q96SW2;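 further: pooled lentiviral library of zinc finger degron-EGFP fusions in mCherry-positive Jurkat cells, FACS-sorted after compound exposure, with degron abundance counted by next-generation sequencing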
T1 chain: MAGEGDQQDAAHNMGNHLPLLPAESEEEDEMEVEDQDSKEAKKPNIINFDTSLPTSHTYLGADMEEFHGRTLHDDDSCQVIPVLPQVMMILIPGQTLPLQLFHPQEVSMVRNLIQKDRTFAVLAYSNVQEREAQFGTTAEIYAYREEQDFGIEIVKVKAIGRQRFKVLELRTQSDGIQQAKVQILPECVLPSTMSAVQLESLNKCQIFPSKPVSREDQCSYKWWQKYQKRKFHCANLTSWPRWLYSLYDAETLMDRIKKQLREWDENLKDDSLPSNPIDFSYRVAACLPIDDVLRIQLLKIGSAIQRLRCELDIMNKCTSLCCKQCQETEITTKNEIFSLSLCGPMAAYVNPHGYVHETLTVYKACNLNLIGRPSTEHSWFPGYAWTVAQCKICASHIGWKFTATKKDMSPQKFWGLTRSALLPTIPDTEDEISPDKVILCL
Assay: log2 fold change of degron read counts, EGFP-low vs EGFP+ sorted cells (limma voom), compound-induced degradation; higher = more compound-induced degradation of the degron-EGFP fusion; degrons are variants of IKZF1/3 zinc finger 2; compound dose not given here
Conditions: Jurkat; 18 h; compound: compound 22 (5-morpholino-thalidomide)
Whole data set: some 8,300 sequences, median “log2 fold change of degron read counts, EGFP-low vs EGFP+ sorted cells (limma voom), compound-induced degradation” near -1.1, cut for the highest 2% near 3.2. The entries come from a sample that favours the highest values as a whole.

Chain	log2 fold change of degron read counts
FWCPVCGACFTQKGNLLRHIKL [46F_47W_49P_50V_52G_53A_54C_55F_67L_, Q9UKT9]	3.44
FQCPVCGACFTQKGNLLRHIKL [46F_47Q_49P_50V_52G_53A_54C_55F_67L_, Q9UKT9]	2.77
FLCPVCGACFTQKGNLLRHIKL [46F_47L_49P_50V_52G_53A_54C_55F_67L_, Q9UKT9]	-0.146
FKCPVCGACFTQKGNLLRHIKL [46F_47K_49P_50V_52G_53A_54C_55F_67L_, Q9UKT9]	-1.95
FNCPVCGACFTQKGNLLRHIKL [46F_47N_49P_50V_52G_53A_54C_55F_67L_, Q9UKT9]	0.504
LFCNQCGFYCTQKGNLLRHIKL [46L_47F_49N_50Q_52G_53F_54Y_55C_67L_, Q9UKT9]	-0.67
FVCPQCGACFTQKGNLLRHIKL [46F_47V_49P_50Q_52G_53A_54C_55F_67L_, Q9UKT9]	-0.402
FYCPVCGACFTQKGNLLRHIKL [46F_47Y_49P_50V_52G_53A_54C_55F_67L_, Q9UKT9]	3.4
FYCDICGAMFTQKGNLLRHIKL [46F_47Y_49D_50I_52G_53A_54M_55F_67L_, Q9UKT9]	1.99
FMCEVCGAFFTQKGNLLRHIKL [46F_47M_49E_50V_52G_53A_54F_55F_67L_, Q9UKT9]	-2.24
FDCDQCGAEFTQKGNLLRHIKL [46F_47D_49D_50Q_52G_53A_54E_55F_67L_, Q9UKT9]	-3.7
FKCPQCGACFTQKGNLLRHIKL [46F_47K_49P_50Q_52G_53A_54C_55F_67L_, Q9UKT9]	-3
FCCEICGHNFTQKGNLLRHIKL [46F_47C_49E_50I_52G_53H_54N_55F_67L_, Q9UKT9]	-2.63
FECDICGAIFTQKGNLLRHIKL [46F_47E_49D_50I_52G_53A_54I_55F_67L_, Q9UKT9]	-1.75
FHCPVCGACFTQKGNLLRHIKL [46F_47H_49P_50V_52G_53A_54C_55F_67L_, Q9UKT9]	2.44
